# Measured Target: MERTK (UniProt Q12866)
# Sequence (Q12866 whole entry, looked up): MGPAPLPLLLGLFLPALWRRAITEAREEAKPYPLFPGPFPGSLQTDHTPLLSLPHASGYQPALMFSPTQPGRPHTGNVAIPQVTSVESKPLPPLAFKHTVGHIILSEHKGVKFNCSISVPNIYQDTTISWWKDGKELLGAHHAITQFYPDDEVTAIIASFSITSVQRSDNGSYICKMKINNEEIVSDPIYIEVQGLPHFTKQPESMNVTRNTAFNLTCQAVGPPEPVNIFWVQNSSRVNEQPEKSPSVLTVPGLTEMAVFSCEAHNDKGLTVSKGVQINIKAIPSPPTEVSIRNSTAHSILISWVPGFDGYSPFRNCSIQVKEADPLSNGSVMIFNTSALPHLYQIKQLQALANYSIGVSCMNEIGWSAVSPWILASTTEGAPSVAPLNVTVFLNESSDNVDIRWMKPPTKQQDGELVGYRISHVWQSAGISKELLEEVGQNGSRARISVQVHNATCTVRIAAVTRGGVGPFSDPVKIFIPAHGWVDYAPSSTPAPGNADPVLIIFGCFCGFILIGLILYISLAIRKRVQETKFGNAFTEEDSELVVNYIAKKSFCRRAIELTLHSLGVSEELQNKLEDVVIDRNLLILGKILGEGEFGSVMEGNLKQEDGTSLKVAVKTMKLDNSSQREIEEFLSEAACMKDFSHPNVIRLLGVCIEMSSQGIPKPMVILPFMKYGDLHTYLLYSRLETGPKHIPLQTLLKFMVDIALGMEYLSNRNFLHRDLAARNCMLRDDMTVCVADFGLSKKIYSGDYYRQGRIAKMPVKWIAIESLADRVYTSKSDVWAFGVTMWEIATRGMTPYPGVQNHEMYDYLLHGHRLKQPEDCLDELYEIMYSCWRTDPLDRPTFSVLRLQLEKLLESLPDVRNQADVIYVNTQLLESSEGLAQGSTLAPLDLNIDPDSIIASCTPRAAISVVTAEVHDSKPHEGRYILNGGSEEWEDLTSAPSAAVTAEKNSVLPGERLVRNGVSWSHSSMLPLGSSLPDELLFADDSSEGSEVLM
# Test Details: phosphorylation enrichment, bacterial display (enrichment ratio); higher = better substrate or ligand; peptides without Tyr show the background;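 further: 11-residue human phosphosite peptides and single-mutation variants displayed on the E. coli surface, counted by deep sequencing, each peptide's frequency after selection divided by its frequency in the unselected input library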;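 further: frequency after pTyr selection over input frequency; kinase dosed for 20-30% of maximal phosphorylation in three min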
Class assignment keyed on phosphorylation enrichment, ranges low value (below 0.4), medium value (0.4 to below 0.6), high value (0.6 or more)

Sequence Code	Label Value
TFEYRYLEDQD [CNOT3_Y746_R750Q]	medium value
LMLVLYGRIFL [HTR1A_Y215_R220L]	high value
ILQSMYGCDVG [HLA-B_Y123_T118I]	medium value
EEGRVYVYHLS [ITGAE_Y549_R552H]	medium value
CNTIHYNYMCN [TP53_Y234_T230N]	medium value
HTDDGYMPMSP [IRS1_Y612]	high value
CTTLHYNFMCN [TP53_Y234_I232L_YF]	medium value
SQPASYQRRLL [PPIG_Y320]	low value
TMKSRYMELFD [BBS2_Y644_YF]	medium value
AELVPYFMEHH [PTPN11_Y80_Q79P_YF]	medium value
LPIQTYSALNF [DES_Y423]	high value
PGPPGYCDSSQ [COL12A1_Y3043]	medium value
LTKQEYDEAGP [ACTA1_Y364_I359L]	high value
VIVRMYDFHVL [RPF2_Y109_G106V_YF]	high value
ANNPLYKEVTS [ITGB3_Y773_A776V]	medium value
EIIPFYGMSSF [FNDC3B_Y175_T179S_YF]	high value
YLEEEYVKAVG [TF_Y674_G671E]	medium value
RGEAVYSRDCV [XPC_Y676]	high value
KVPAIYGVGTR [CPS1_Y162_D165G]	medium value
ISNATYKEIGL [FLT1_Y199]	low value
NNDLCYWVLEL [IARS1_Y434_P437L]	high value
TSFSGYRFHRH [NKAPL_Y94_YF]	medium value
FLNSSYINIST [IL23R_Y178_T175N_YF]	medium value
QKPLGYFRVNL [GALE_Y104_D103G_YF]	medium value
HFVDEYDRTIE [KRAS_Y32_P34R]	medium value
NAPNSYGRRLI [CDKN2A_Y44_P48L]	medium value
IFRASYFRRGD [LTK_Y676_YF]	medium value
ERSMSYSDESR [SMG1_Y143]	medium value
GFPVRYTDVSN [DNMT3B_Y815_H814R]	medium value
AVLSLYASDRT [ACTA1_Y145_G148D]	medium value
MQMEEYRGWVE [BTNL2_Y91]	medium value
WSISFYPQVIM [CTNS_Y143]	low value
KALSLYTKLMN [STAM_Y371_E366K]	medium value
NNTFLYQLVFD [EXO1_Y284]	high value
RFLERYIYNRQ [HLA-DPB1_Y57_E62Q]	high value
FHLGKYLQEVL [KLB_Y910_Y906H_YF]	medium value
RHYVYYYSYLL [PTEN_Y177_R173H]	high value
RRGTGYTLPLP [MAGEC3_Y152_S155P]	high value
QLGLQYSQGLV [EIF2B4_Y214_R209Q]	high value
KGEPQYSSHSS [SIPA1L3_Y1265]	medium value
GMRHGYGVRQS [JPH2_Y141]	low value
QFNMQYSSSAA [ERBB2IP_Y981_I979M_YF]	medium value
RDLTDYLMKIL [ACTA1_Y190]	medium value
LERYIYNREEL [HLA-DPB1_Y59_F64L]	low value
KLQQWYREHRS [GPI_Y17]	low value
KWTVDYLSQVG [TYW5_Y48]	low value
